Catalogue of shrunken log2 fold change readings, one per entry.
# Test system: Escherichia coli TOP10
# PROTOCOL NOTES: shrunken log2 fold change of peptide-encoding DNA abundance (4.5 h post-induction vs induction); higher = less antimicrobial activity (less host growth inhibition)
# CONDITION LABEL: time post-induction: 4.5 h; library: site-saturation at positions 5, 18, 19, 20

RRIRERPPRLPRPRPRPYMVPRP; -0.832
RRIRDRPPRLPRPRPRPRGGPRP; 0.726
RRIRPRPPRLPRPRPRPFDDPRP; -0.189
RRIRSRPPRLPRPRPRPRIGPRP; 0.395

Continue with the sequence presented below.
Request: Any idea what shrunken log2 fold change was measured for RRIRFRPPRLPRPRPRPYKWPRP ?
Result: -0.298

* * *

# Tested on: Escherichia coli TOP10
# PROTOCOL NOTES: shrunken log2 fold change of peptide-encoding DNA abundance (4.5 h post-induction vs induction); higher = less antimicrobial activity (less host growth inhibition)
# CONDITION LABEL: time post-induction: 4.5 h; library: site-saturation at positions 5, 18, 19, 20
just bin them by shrunken log2 fold change: 1 = under -0.3, 2 = from -0.3 up to -0.09, 3 = -0.09 and over

Field: example entries. Status: answers known.
RRIRKRPPRLPRPRPRPTDMPRP; 2
RRIRERPPRLPRPRPRPIEDPRP; 2
RRIRRRPPRLPRPRPRPDPQPRP; 3
RRIRLRPPRLPRPRPRPFAMPRP; 1
RRIRPRPPRLPRPRPRPTAFPRP; 3
RRIRSRPPRLPRPRPRPYMDPRP; 1

Request: Into which bin does this sequence go? RRIRRRPPRLPRPRPRPVYIPRP
Result: 1

Request: Into which bin does this sequence go? RRIRTRPPRLPRPRPRPNSIPRP
Result: 3

* * *

# System: Escherichia coli TOP10
# PROTOCOL NOTES: shrunken log2 fold change of peptide-encoding DNA abundance (4.5 h post-induction vs induction); higher = less antimicrobial activity (less host growth inhibition)
# CONDITION LABEL: time post-induction: 4.5 h; library: site-saturation at positions 5, 18, 19, 20
ENDPOINT: shrunken log2 fold change
Give the figure by itself; no unit, no explanation.

Some solved entries appear below for comparison.
RRIRARPPRLPRPRPRPYRNPRP; -0.222
RRIRHRPPRLPRPRPRPIKYPRP; -0.194
RRIRRRPPRLPRPRPRPYESPRP; 0.0181
RRIRARPPRLPRPRPRPHSNPRP; -0.251

Request: For the record RRIRLRPPRLPRPRPRPFVRPRP , what value of shrunken log2 fold change is listed for Escherichia coli TOP10?
Result: 0.00108

* * *

Catalogue of shrunken log2 fold change readings, one per entry.
# Test system: Escherichia coli TOP10
# PROTOCOL NOTES: shrunken log2 fold change of peptide-encoding DNA abundance (4.5 h post-induction vs induction); higher = less antimicrobial activity (less host growth inhibition)
# CONDITION LABEL: time post-induction: 4.5 h; library: site-saturation at positions 5, 18, 19, 20
Give the figure by itself; no unit, no explanation.

Some solved entries appear below for comparison.
RRIRFRPPRLPRPRPRPGNHPRP; -0.0246
RRIRDRPPRLPRPRPRPNDYPRP; -0.197
RRIRDRPPRLPRPRPRPTALPRP; 0.573
RRIRARPPRLPRPRPRPPRMPRP; 0.949
RRIRWRPPRLPRPRPRPDAMPRP; 0.393

Request: For the record RRIRIRPPRLPRPRPRPIEAPRP , what value of shrunken log2 fold change is listed for Escherichia coli TOP10?
Result: -0.01

Request: For the record RRIRKRPPRLPRPRPRPRTDPRP , what value of shrunken log2 fold change is listed for Escherichia coli TOP10?
Result: 0.206

Request: For the record RRIRCRPPRLPRPRPRPMSQPRP , what value of shrunken log2 fold change is listed for Escherichia coli TOP10?
Result: -0.0148

Request: For the record RRIRGRPPRLPRPRPRPQNSPRP , what value of shrunken log2 fold change is listed for Escherichia coli TOP10?
Result: -0.506

* * *

# Tested on: Escherichia coli TOP10
# PROTOCOL NOTES: shrunken log2 fold change of peptide-encoding DNA abundance (4.5 h post-induction vs induction); higher = less antimicrobial activity (less host growth inhibition)
# CONDITION LABEL: time post-induction: 4.5 h; library: site-saturation at positions 5, 18, 19, 20
Kind request: treat 0.1 as inclusive, so shrunken log2 fold change at 0.1 or higher is True, anything lower is False.

RRIRKRPPRLPRPRPRPLFKPRP; True
RRIRNRPPRLPRPRPRPDQMPRP; False
RRIRNRPPRLPRPRPRPNADPRP; False
RRIRSRPPRLPRPRPRPWYIPRP; False
RRIRLRPPRLPRPRPRPCRYPRP; False

Now for a further sequence.
Request: Assess whether reported shrunken log2 fold change for RRIRGRPPRLPRPRPRPCTQPRP sits at 0.1 or higher.
Result: True

* * *

# Test system: Escherichia coli TOP10
# PROTOCOL NOTES: shrunken log2 fold change of peptide-encoding DNA abundance (4.5 h post-induction vs induction); higher = less antimicrobial activity (less host growth inhibition)
# CONDITION LABEL: time post-induction: 4.5 h; library: site-saturation at positions 5, 18, 19, 20
ENDPOINT: shrunken log2 fold change
Give the figure by itself; no unit, no explanation.

Some solved entries appear below for comparison.
RRIRQRPPRLPRPRPRPYKKPRP; -0.0619
RRIRWRPPRLPRPRPRPEAIPRP; 0.25
RRIRFRPPRLPRPRPRPACLPRP; -0.105
RRIRARPPRLPRPRPRPHQYPRP; -0.278
RRIRIRPPRLPRPRPRPGLMPRP; -0.0194
RRIRNRPPRLPRPRPRPTSFPRP; 0.00362

Request: Any idea what shrunken log2 fold change was measured for RRIRERPPRLPRPRPRPINSPRP ?
Result: -0.157

Request: Any idea what shrunken log2 fold change was measured for RRIRWRPPRLPRPRPRPINDPRP ?
Result: -0.222

* * *

# Test system: Escherichia coli TOP10
# PROTOCOL NOTES: shrunken log2 fold change of peptide-encoding DNA abundance (4.5 h post-induction vs induction); higher = less antimicrobial activity (less host growth inhibition)
# CONDITION LABEL: time post-induction: 4.5 h; library: site-saturation at positions 5, 18, 19, 20
just bin them by shrunken log2 fold change: bottom range (below -0.2), center range (-0.2 to below 0.2), top range (0.2 or more)

Field: example entries. Status: answers known.
RRIRSRPPRLPRPRPRPVPQPRP; center range
RRIRARPPRLPRPRPRPEQGPRP; top range
RRIRLRPPRLPRPRPRPVACPRP; center range
RRIRVRPPRLPRPRPRPWKNPRP; center range

Request: Into which bin does this sequence go? RRIRTRPPRLPRPRPRPGMWPRP
Result: center range

* * *

Catalogue of shrunken log2 fold change readings, one per entry.
# System: Escherichia coli TOP10
# PROTOCOL NOTES: shrunken log2 fold change of peptide-encoding DNA abundance (4.5 h post-induction vs induction); higher = less antimicrobial activity (less host growth inhibition)
# CONDITION LABEL: time post-induction: 4.5 h; library: site-saturation at positions 5, 18, 19, 20
Give the figure by itself; no unit, no explanation.

Some solved entries appear below for comparison.
RRIRQRPPRLPRPRPRPSIGPRP; -0.268
RRIRTRPPRLPRPRPRPKATPRP; -0.146
RRIRDRPPRLPRPRPRPVQYPRP; -0.0992
RRIRKRPPRLPRPRPRPIWTPRP; -0.00674
RRIRSRPPRLPRPRPRPGECPRP; -0.181

Request: Any idea what shrunken log2 fold change was measured for RRIRVRPPRLPRPRPRPQRSPRP ?
Result: -0.431

Request: Any idea what shrunken log2 fold change was measured for RRIRDRPPRLPRPRPRPPRHPRP ?
Result: 0.377

Request: Any idea what shrunken log2 fold change was measured for RRIRHRPPRLPRPRPRPWGPPRP ?
Result: -0.0071

Request: Any idea what shrunken log2 fold change was measured for RRIRQRPPRLPRPRPRPAEQPRP ?
Result: -0.000243

* * *

# Tested on: Escherichia coli TOP10;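 further: peptides expressed intracellularly from a pBAD plasmid library in pooled LB shake-flask culture, induced with 0.3% L-arabinose, DNA abundance read by NGS, three biological replicates, DESeq2 with apeglm shrinkage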
# PROTOCOL NOTES: shrunken log2 fold change of peptide-encoding DNA abundance (4.5 h post-induction vs induction); higher = less antimicrobial activity (less host growth inhibition)
# CONDITION LABEL: time post-induction: 4.5 h; library: site-saturation at positions 5, 18, 19, 20
Kind request: treat -0.03 as inclusive, so shrunken log2 fold change at -0.03 or higher is y, anything lower is n.

Field: example entries. Status: answers known.
RRIRGRPPRLPRPRPRPKVIPRP; y
RRIRIRPPRLPRPRPRPTLFPRP; n
RRIRFRPPRLPRPRPRPVTMPRP; n

Request: Assess whether reported shrunken log2 fold change for RRIRTRPPRLPRPRPRPNQCPRP sits at -0.03 or higher.
Result: y

Request: Assess whether reported shrunken log2 fold change for RRIRWRPPRLPRPRPRPWHIPRP sits at -0.03 or higher.
Result: y

Request: Assess whether reported shrunken log2 fold change for RRIRARPPRLPRPRPRPNEVPRP sits at -0.03 or higher.
Result: y

Request: Assess whether reported shrunken log2 fold change for RRIRHRPPRLPRPRPRPTKQPRP sits at -0.03 or higher.
Result: n

Request: Assess whether reported shrunken log2 fold change for RRIRFRPPRLPRPRPRPMVRPRP sits at -0.03 or higher.
Result: y
